The measured values listed here are drawn from patent US20260116983A1.

molecular target: T1, human uPAR displayed on the surface of MDA-MB-231 cells (human, UniProt Q03405 23-305); experiment: flow cytometry (FACS) on MDA-MB-231 cells
T1 construct: whole, on cells; also called cell-surface uPAR; cellular uPAR
T1 sequence (Q03405 23-305): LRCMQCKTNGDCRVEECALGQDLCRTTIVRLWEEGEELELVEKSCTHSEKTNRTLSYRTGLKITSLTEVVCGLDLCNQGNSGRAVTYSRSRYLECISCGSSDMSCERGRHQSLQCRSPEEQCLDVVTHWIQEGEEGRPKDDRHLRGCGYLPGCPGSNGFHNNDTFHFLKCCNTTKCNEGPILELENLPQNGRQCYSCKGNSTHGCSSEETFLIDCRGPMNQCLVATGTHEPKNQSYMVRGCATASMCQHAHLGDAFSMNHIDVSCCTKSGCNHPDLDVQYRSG
Overview of recorded Cellular recognition Max % for various binders
Dear colleague, please return just the value in %, with no unit written.

Cellular recognition Max % measured on Antibody 11857 (antibody, human IgG1, V domains shown) VH: EVQLRQSGPELVKPGASVKISCKASGYTFTDYYMNWVKQSHEKSLEWIGNINPNNGGTDYNQKFKGKATLTVDKSSSTAYMELRSLTSEDSAVYYCARSYGSRFPYWGLGTLVTVSA VL: DIQMTQTTSSLSASLGDRVTISCRASQDITNYLSWYQQKPDGTVKLLIFYTAVLQSGFPLRFSGSGSGADYSLTISNLEQEDFATYFCQQGHTLPWTFGGGTKLEIK = 1940

Cellular recognition Max % measured on Antibody 8163 (antibody, human IgG1, V domains shown, Chimeric: mouse VH/VL linked to Herceptin (trastuzumab) human IgG1 / kappa constant regions) VH: EVQLVESGGGLVQPGESLTLSCDSNEFDFPSHDMSWVRKTPEKRLELVAAIDSDGGLTYYSNSRERRFIISRDNTKNTLYLQMRSLRSEDTALYYCARRRASYWYFDVWGTGTTVTVSS VL: DILLTQSPAILPVSPGERVSFSCRASQNIGTSIHWYQQRTNGSPRLLIKYASESISGIPSRFSGSGSGTDFTLSINGVESEDIGDYYCQQSNSWPTFGGGTKLEIK = 2330

Cellular recognition Max % measured on Antibody 3595 (antibody, human IgG1, V domains shown, Chimeric: mouse VH/VL linked to Herceptin (trastuzumab) human IgG1 / kappa constant regions) VH: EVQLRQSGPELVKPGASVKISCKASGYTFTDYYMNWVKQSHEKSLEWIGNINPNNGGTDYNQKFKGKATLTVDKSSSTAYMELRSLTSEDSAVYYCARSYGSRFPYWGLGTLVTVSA VL: DIQMTQTTSSLSASLGDRVTISCRASQDITNYLSWYQQKPDGTVKLLIFYTSFLQSGVPLRFSGSGSGADYSLTISNLEQEDFATYFCQQGHTLPWTFGGGTKLEIK = 2280

Cellular recognition Max % measured on Antibody 3159 (antibody, human IgG1, V domains shown, Chimeric: mouse VH/VL linked to Herceptin (trastuzumab) human IgG1 / kappa constant regions) VH: QVTLKESGPGILQSSLTLSLTCSLSGFSLSTSGMGVSWIRQPSGKGLEWLAHIYWDDDKRYNPSLKTRLTISKDASRDQVFLKIISVDTADTGTYYCGRRVRNYFSGTSYWYFDVWGTGTTVTVSS VL: DVLMTQTPLSLSVSLGDQASISCRSSQNILHRTGNTYLEWYLQKPGQSPKLLIYKVSNRFSGVPDRFSGSGSGTDFTLKISRLEAEDLGVYYCFQGSYVPFTFGSGTKLEMK = 1830
